The reported numbers originate from patent US9682940B2.

# target-or-system: UniProtKB P21554
# method-summary: CB-1 in vitro cAMP (HTRF) assay in HEK-293 cells
# condition-label: HEK-293 cells stably transfected with human CB1R, 250 nM Forskolin, mean where tested more than once, read-out: CB-1 (HEK_cAMP) EC50
# Description: CB1 and CB2 receptors are Gi-coupled GPCR. Activation of CB1 and CB2 receptors results in a decrease in cAMP production. An inverse agonist of the CB1 or CB2 receptor results in the opposite effect, an increase of cAMP production. The principle of this assay is based on HTRF® technology (Homogeneous Time-Resolved Fluorescence). […] The tracer binding is quantified by a Mab anti-cAMP labeled with Eu3+TBP-NHS Cryptate (supplied as part of the assay kit). […]
pEC50: −log10 of the molar value.
measurement-kind: pEC50

>  <chem-smiles>
O=C(O)Cc1cccc(N2CCC(c3n[nH]c4ccc(C(c5ccc(Cl)cc5)c5ccc(Cl)cc5)cc34)CC2)c1

>  <measurement-kind>
pEC50

>  <observed>
5.49

$$$$
>  <chem-smiles>
O=C(O)COc1cccc(N2CCC(c3n[nH]c4ccc(C(c5ccc(Cl)cc5)c5ccc(Cl)cc5)cc34)CC2)c1

>  <measurement-kind>
pEC50

>  <observed>
5.89

$$$$
>  <chem-smiles>
O=C(O)c1ccc(CN2CCC(c3nn(C4CC4)c4ccc(C(c5ccc(Cl)cc5)c5ccc(Cl)cc5)cc34)CC2)cc1

>  <measurement-kind>
pEC50

>  <observed>
7.17

$$$$
>  <chem-smiles>
COC(=O)Cn1nc(N2CCN(S(=O)(=O)C(F)(F)F)CC2)c2cc(C(c3ccc(Cl)cc3)c3ccc(Cl)cc3)ccc21

>  <measurement-kind>
pEC50

>  <observed>
6.78

$$$$

P. O=C(NCc1ccccc1)N1CCC(c2n[nH]c3ccc(C(c4ccc(Cl)cc4)c4ccc(Cl)cc4)cc23)CC1
Q. COc1cccc(S(=O)(=O)N2CCC(Nc3n[nH]c4ccc(C(c5ccc(Cl)cc5)c5ccc(Cl)cc5)cc34)CC2)c1
R. O=C(CCO)N1CCC(c2c3cc(C(c4ccc(Cl)cc4)c4ccc(Cl)cc4)ccc3nn2C2CC2)CC1
List the 3 entries from lowest pEC50 to highest pEC50 value. Please list the labels in the order you were asked to rank them.
P, Q, R
(P: 6.17, Q: 6.53, R: 6.78)

---

# target-or-system: Human CB1R (Cannabanoid receptor 1) (Homo sapiens (Human), UniProt P21554)
# Sequence (P21554 whole entry): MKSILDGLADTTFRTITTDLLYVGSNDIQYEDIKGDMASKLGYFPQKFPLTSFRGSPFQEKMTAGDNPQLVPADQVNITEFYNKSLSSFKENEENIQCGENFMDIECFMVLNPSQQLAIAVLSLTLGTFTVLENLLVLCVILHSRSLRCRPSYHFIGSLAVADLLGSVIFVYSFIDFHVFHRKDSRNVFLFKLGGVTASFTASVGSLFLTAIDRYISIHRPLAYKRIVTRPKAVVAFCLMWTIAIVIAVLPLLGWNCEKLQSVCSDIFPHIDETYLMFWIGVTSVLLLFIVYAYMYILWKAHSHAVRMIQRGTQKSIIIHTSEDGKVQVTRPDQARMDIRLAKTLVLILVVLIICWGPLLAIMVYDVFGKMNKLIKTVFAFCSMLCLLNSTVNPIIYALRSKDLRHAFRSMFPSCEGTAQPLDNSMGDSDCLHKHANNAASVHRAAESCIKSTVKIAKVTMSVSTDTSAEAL
# method-summary: CB-1 in vitro cAMP (HTRF) assay in HEK-293 cells
# condition-label: HEK-293 cells stably transfected with human CB1R, 250 nM Forskolin, mean where tested more than once, read-out: CB-1 (HEK_cAMP) EC50
pEC50: −log10 of the molar value.
measurement-kind: pEC50

>  <molecule>
O=S(=O)(CC(F)(F)F)N1CCC(c2n[nH]c3ccc(C(c4ccc(Cl)cc4)c4ccc(Cl)cc4)cc23)CC1 [Compound 53]

>  <pEC50>
7.31

$$$$
>  <molecule>
O=C(O)c1cccc(CN2CCC(c3nn(C4CC4)c4ccc(C(c5ccc(F)cc5)c5ccc(Cl)cc5)cc34)CC2)c1 (stereo not shown) [Compound 246]

>  <pEC50>
7.54

$$$$
>  <molecule>
O=C(O)c1ccc(S(=O)(=O)N2CCC(c3c4cc(C(c5ccc(Cl)cc5)c5ccc(Cl)cc5)ccc4nn3C3CC3)CC2)cc1F [Compound 166]

>  <pEC50>
8.70

$$$$
>  <molecule>
O=C(O)c1ccc(CN2CCC(c3n[nH]c4ccc(C(c5ccc(Cl)cc5)c5ccc(Cl)cc5)cc34)CC2)cc1 [Compound 221]

>  <pEC50>
6.87

$$$$
>  <molecule>
O=C(O)c1ccc(S(=O)(=O)N2CCC(c3n[nH]c4ccc(C(c5ccc(Cl)cc5)c5ccc(Cl)cc5)cc34)C2)o1 (stereo not shown) [Compound 270]

>  <pEC50>
5.02

$$$$
>  <molecule>
COc1cc(S(=O)(=O)N2CCC(c3c4cc(C(c5ccc(Cl)cc5)c5ccc(Cl)cc5)ccc4nn3C3CC3)CC2)ccc1C(=O)O [Compound 157]

>  <pEC50>
8.70

$$$$
>  <molecule>
O=C(NC1CCCC1)N1CCC(c2n[nH]c3ccc(C(c4ccc(Cl)cc4)c4ccc(Cl)cc4)cc23)CC1 [Compound 263]

>  <pEC50>
6.63

$$$$
>  <molecule>
O=C(CC(F)(F)F)N1CCC(c2n[nH]c3ccc(C(c4ccc(Cl)cc4)c4ccc(Cl)cc4)cc23)CC1 [Compound 56]

>  <pEC50>
7.14

$$$$

a. O=C(O)Cc1ccc(N2CCC(c3c4cc(C(c5ccc(Cl)cc5)c5ccc(Cl)cc5)ccc4nn3C3CC3)CC2)cc1 [Compound 203]
b. O=C(O)c1ccc(N2CCC(c3n[nH]c4ccc(C(c5ccc(Cl)cc5)c5ccc(Cl)cc5)cc34)CC2)cc1 [Compound 213]
c. COC(=O)c1ccc(S(=O)(=O)N2CCC(c3n[nH]c4ccc(C(c5ccc(Cl)cc5)c5ccc(Cl)cc5)cc34)CC2)o1 [Compound 260]
d. NC(=O)c1ccc(S(=O)(=O)N2CCC(c3c4cc(C(c5ccc(Cl)cc5)c5ccc(Cl)cc5)ccc4nn3C3CC3)CC2)cn1 [Compound 165]
e. O=C(O)c1ccc(N2CCC(c3nn(C4CC4)c4ccc(C(c5ccc(Cl)cc5)c5ccc(Cl)cc5)cc34)CC2)cc1 [Compound 198]
List the 5 entries from lowest pEC50 to highest pEC50 value. Please list the labels in the order you were asked to rank them.
b, e, a, c, d
(b: 6.44, e: 6.82, a: 7.28, c: 7.60, d: 7.89)
